The measurements presented in this section are drawn from the supplement of paper PMC10126150.

What switch fluorescence ratio was measured for each of the following?
- Tested on: ATP;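 also: ATP exposure 15 min at 22 °C before imaging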
- method: switch fluorescence ratio, 500 uM ATP over buffer (Cy3 cluster intensity, sum of 5 cycles each) (fold (ratio)); higher = stronger signal-on switching upon ATP binding; sequences stand for … in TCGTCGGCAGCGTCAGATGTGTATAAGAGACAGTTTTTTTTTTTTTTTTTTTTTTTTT…TC
- condition details: aptamer strand: ATP DNA aptamer (quencher-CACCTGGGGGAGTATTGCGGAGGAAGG + anchor), 100 nM annealed; ATP concentration: 500 uM
Answer with the value's number alone.

The reported value for GATGGAACTT in terms of switch fluorescence ratio is 1.02

The reported value for CTGACCTGTA in terms of switch fluorescence ratio is 1.09

The reported value for GCGTGTTTTT in terms of switch fluorescence ratio is 1.04

The reported value for TAGCAACGCA in terms of switch fluorescence ratio is 1.03

The reported value for CAGAGTTTAG in terms of switch fluorescence ratio is 0.973

The reported value for TTTTGTTCAC in terms of switch fluorescence ratio is 1.01

The reported value for TTTTTTCGAA in terms of switch fluorescence ratio is 0.998

The reported value for AAAGTCTAAA in terms of switch fluorescence ratio is 0.977

The reported value for TCAGACAGCG in terms of switch fluorescence ratio is 1.03

The reported value for TAGCTGAAGT in terms of switch fluorescence ratio is 0.975

The reported value for AGGACTTTCT in terms of switch fluorescence ratio is 1.04

The reported value for CGGTTCGGGC in terms of switch fluorescence ratio is 0.983

The reported value for ATGAGAAGTT in terms of switch fluorescence ratio is 1.01

The reported value for GCCGGCGCAC in terms of switch fluorescence ratio is 1.03

The reported value for AAATTTAATG in terms of switch fluorescence ratio is 0.961

The reported value for GGGTTAGCCT in terms of switch fluorescence ratio is 0.999

The reported value for CCACTTTCCT in terms of switch fluorescence ratio is 1.2

The reported value for CAGGACTTGC in terms of switch fluorescence ratio is 0.995

The reported value for GACCGGGCTC in terms of switch fluorescence ratio is 0.976

The reported value for ACGGTCACCC in terms of switch fluorescence ratio is 1.66

The reported value for TATAGTTGTT in terms of switch fluorescence ratio is 0.992

The reported value for TTTGCACTTT in terms of switch fluorescence ratio is 1

The reported value for ATTAGACCCT in terms of switch fluorescence ratio is 1.04

The reported value for CGGGATATCG in terms of switch fluorescence ratio is 1.01

The reported value for TGATTTCCAT in terms of switch fluorescence ratio is 1

The reported value for ATTGCTCTTT in terms of switch fluorescence ratio is 1

The reported value for CGTGTCATTA in terms of switch fluorescence ratio is 1.01

The reported value for CCATTATATC in terms of switch fluorescence ratio is 1.01

The reported value for GAGATAGCTT in terms of switch fluorescence ratio is 0.955

The reported value for GTGAGAGCTG in terms of switch fluorescence ratio is 0.952

The reported value for AGGGCGTTAG in terms of switch fluorescence ratio is 1.01

The reported value for TGGTGGTAGG in terms of switch fluorescence ratio is 0.984

The reported value for GATTTAAAGG in terms of switch fluorescence ratio is 1.04

The reported value for AGGGATGGGG in terms of switch fluorescence ratio is 0.976

The reported value for AAAGCTTATT in terms of switch fluorescence ratio is 0.998

The reported value for ACGTTGCTAA in terms of switch fluorescence ratio is 1.02

The reported value for AATAATCAAA in terms of switch fluorescence ratio is 1.01

The reported value for CGGAAAAATT in terms of switch fluorescence ratio is 1.04

The reported value for GGGGACTTGT in terms of switch fluorescence ratio is 0.999

The reported value for TTGGTAATCC in terms of switch fluorescence ratio is 1.01

The reported value for TTGGGATGCC in terms of switch fluorescence ratio is 1.08

The reported value for TGAACCTTCA in terms of switch fluorescence ratio is 2.71

The reported value for GCTTCGGATC in terms of switch fluorescence ratio is 1.22

The reported value for TGCTCCAAGT in terms of switch fluorescence ratio is 1.03

The reported value for GTCAGAACTA in terms of switch fluorescence ratio is 0.979

The reported value for TTGTATAAGG in terms of switch fluorescence ratio is 1

The reported value for GGTGATCCTG in terms of switch fluorescence ratio is 0.977

The reported value for CGGTGTAAAA in terms of switch fluorescence ratio is 0.961

The reported value for CAGGGTGGAC in terms of switch fluorescence ratio is 1.04

The reported value for ACAAGGATTC in terms of switch fluorescence ratio is 0.995

The reported value for AAGTGCCGAG in terms of switch fluorescence ratio is 0.989

The reported value for TATAAATAGT in terms of switch fluorescence ratio is 0.96

The reported value for GACAGGGGTT in terms of switch fluorescence ratio is 1.04

The reported value for GAACTTCGGT in terms of switch fluorescence ratio is 0.946

The reported value for TAAAAGGTTG in terms of switch fluorescence ratio is 0.989

The reported value for AATCGTCTTG in terms of switch fluorescence ratio is 0.97

The reported value for GCGGCCCGAG in terms of switch fluorescence ratio is 0.962

The reported value for AACTTTTTTT in terms of switch fluorescence ratio is 0.982

The reported value for ACGCCGGATT in terms of switch fluorescence ratio is 1.01

The reported value for GGAAGTTACA in terms of switch fluorescence ratio is 1.06

The reported value for GCTGGGGCGG in terms of switch fluorescence ratio is 0.98

The reported value for CCAGACACAC in terms of switch fluorescence ratio is 1.45

The reported value for GGGGATATGA in terms of switch fluorescence ratio is 0.995

The reported value for TTTTTAGGC in terms of switch fluorescence ratio is 1.01

The reported value for AAGTTCCGAG in terms of switch fluorescence ratio is 1.18

The reported value for CGTGAGGGTG in terms of switch fluorescence ratio is 1.01

The reported value for GTTAGGTTGC in terms of switch fluorescence ratio is 1.01

The reported value for ATGGATTGCA in terms of switch fluorescence ratio is 0.994

The reported value for CGGACGAGAG in terms of switch fluorescence ratio is 0.998

The reported value for ATAAGGGGAT in terms of switch fluorescence ratio is 0.983

The reported value for GCATTAAGGA in terms of switch fluorescence ratio is 1.06

The reported value for GAATTGGGCT in terms of switch fluorescence ratio is 0.968

The reported value for ATGATTTGGT in terms of switch fluorescence ratio is 0.983

The reported value for TGGTGGAGGT in terms of switch fluorescence ratio is 0.977

The reported value for AAAAAAACCT in terms of switch fluorescence ratio is 1.28

The reported value for GATGATGTGT in terms of switch fluorescence ratio is 1.02

The reported value for TGTAATTGCT in terms of switch fluorescence ratio is 0.999

The reported value for TCGGACGTGC in terms of switch fluorescence ratio is 1.35

The reported value for AGGGTCTGTT in terms of switch fluorescence ratio is 0.978

The reported value for GAGCATATTG in terms of switch fluorescence ratio is 1.03

The reported value for TGGGAAACGT in terms of switch fluorescence ratio is 1.09

The reported value for CGCGCAGAT in terms of switch fluorescence ratio is 1.02

The reported value for GGTTATAGCT in terms of switch fluorescence ratio is 1.02

The reported value for ATATCGTTGA in terms of switch fluorescence ratio is 0.978

The reported value for TCTTTGTTGA in terms of switch fluorescence ratio is 0.995

The reported value for TTGGTTTTGT in terms of switch fluorescence ratio is 0.995
